Data provenance is patent US20040147527A1.

tested on: S. pneumoniae with reduced susceptibility to CIP; experiment: MIC by NCCLS microbroth dilution, 80 clinical isolates with CIP MIC ≧2 μg/ml; format: cell-based; conditions: Streptococcus pneumoniae
Parameter: MIC

Please review the following examples before continuing.
COc1c(N2CCNC(C)C2)c(F)cc2c(=O)c(C(=O)O)cn(C3CC3)c12 (stereo not shown) [GAT, gatifloxacin] ... 0.25 to 8 µg/mL
CO/N=C1\CN(c2nc3c(cc2F)c(=O)c(C(=O)O)cn3C2CC2)CC1CN (racemic) [GFX] ... 0.03 to 5 µg/mL
Cc1c(F)c(N2CCNC(C)C2)cc2c1c(=O)c(C(=O)O)cn2C1CC1 (stereo not shown) [GRE, grepafloxacin] ... 0.12 to 8 µg/mL
C[C@H]1COc2c(N3CCN(C)CC3)c(F)cc3c(=O)c(C(=O)O)cn1c23 [LEV, levofloxacin] ... 1 to 32 µg/mL
COc1c(N2C[C@@H]3CCCN[C@@H]3C2)c(F)cc2c(=O)c(C(=O)O)cn(C3CC3)c12 [MOX, moxifloxacin] ... 0.12 to 4 µg/mL
C[C@@H]1CN(c2c(F)c(N)c3c(=O)c(C(=O)O)cn(C4CC4)c3c2F)C[C@H](C)N1 [SPA, sparfloxacin] ... 0.25 to 32 µg/mL

# evaluate next
**Q:** // MIC lookup, key: N[C@@H]1[C@H]2CN(c3nc4c(cc3F)c(=O)c(C(=O)O)cn4-c3ccc(F)cc3F)C[C@@H]12 [TFX, trovafloxacin]
**A:** 0.06 to 8 µg/mL
